Numbers sourced from patent US8778643B2.

tested on: Phaeodactylum tricornutum; assay: Microplate assay: growth (absorbance 680 nm) and intracellular lipids (Nile Red fluorescence); format: cell-based; conditions: 200 nM; initial microplate screen, relative to control
Measured Absorbance (percent increase) values are reported for all entries that follow.
Field: numeric (%). Do not append units.

Solved entries (count: 3):
>>> reported("c1ccc(CNc2ncnc3nc[nH]c23)cc1")
"−14.6"
>>> reported("C=C[C@@]1(C)CC(=O)[C@]2(O)[C@@]3(C)[C@@H](O)CCC(C)(C)[C@@H]3[C@H](O)[C@H](OC(C)=O)[C@@]2(C)O1")
"−1.2"
>>> reported("NS(=O)(=O)c1ccc(N/N=C2\\C(=O)Nc3ccc(Br)cc32)cc1")
"−7.9"

Now examine the next entry.
Task: Give its Absorbance (percent increase) value. Item: CC1=CC(=O)CC(C)(C)[C@@]1(O)/C=C/C(C)=C\C(=O)O [Abscisic acid]
Result: −1.2

* * *

system: Nannochloropsis oculata; conditions: N. oculata, compounds tested at 200 nM, initial screening, p<0.05
MEASURE: Nile Red Fluorescence % Increase

As a guide, the following entries are already answered.
>>> reported("CC(O)C(=O)O (centres unmarked) [Lactic Acid]")
"128.8%"
>>> reported("CO[C@H]1C[C@@H]2CC[C@@H](C)[C@@](O)(O2)C(=O)C(=O)N2CCCC[C@H]2C(=O)O[C@H]([C@H](C)C[C@@H]2CC[C@@H](O)[C@H](OC)C2)CC(=O)[C@H](C)/C=C(\\C)[C@@H](O)[C@@H](OC)C(=O)[C@H](C)C[C@H](C)/C=C/C=C/C=C/1C [Rapamycin]")
"141.6%"
>>> reported("Oc1ccc(/C=C/c2cc(O)cc(O)c2)cc1 [Resveratrol]")
"120.4%"

Task: Given the entry COc1cc(C[C@H]2C(=O)OC[C@@H]2Cc2ccc(OC)c(OC)c2)ccc1O [Arctigenin] , report its measured Nile Red Fluorescence % Increase.
Result: 152.2%

Task: Looking for the measured Nile Red Fluorescence % Increase of CC1CC(C)C(=O)C(C(O)CC2CC(=O)NC(=O)C2)C1 (centres unmarked) [Cycloheximide] , can you help?
Result: 137.9%

Task: For CCCCc1c(-c2ccc(O)cc2)[nH]c2nccnc12 [Aloisine A] , what is its reported Nile Red Fluorescence % Increase?
Result: 117.7%

Task: Query: Nile Red Fluorescence % Increase; subject: O=C(O[C@@H]1Cc2c(O)cc(O)cc2O[C@@H]1c1cc(O)c(O)c(O)c1)c1cc(O)c(O)c(O)c1 [EGCG]
Result: 207.5%

Task: Quick one: Nile Red Fluorescence % Increase of N#CC(C#N)=Cc1cc(O)c(O)c(O)c1 [AG82] ?
Result: 144.5%

* * *

Each entry below carries its reported Nile Red percent increase.
test system: Phaeodactylum tricornutum; experiment: Microplate assay: growth (absorbance 680 nm) and intracellular lipids (Nile Red fluorescence); assay type: cell-based; conditions: 200 nM; initial microplate screen, relative to control
Answer in %, number only, no unit symbol.

Below, each entry is followed by its recorded Nile Red percent increase result.
>>> reported("c1ccc(CNc2ncnc3nc[nH]c23)cc1")
105.9
>>> reported("C=C[C@@]1(C)CC(=O)[C@]2(O)[C@@]3(C)[C@@H](O)CCC(C)(C)[C@@H]3[C@H](O)[C@H](OC(C)=O)[C@@]2(C)O1")
103.6
>>> reported("CC1=CC(=O)CC(C)(C)[C@@]1(O)/C=C/C(C)=C\\C(=O)O [Abscisic acid]")
87.0

Consider the record given below.
Task: Entry under review: NS(=O)(=O)c1ccc(N/N=C2\C(=O)Nc3ccc(Br)cc32)cc1 . Reported Nile Red percent increase?
Result: 50.3
